Test: ATP-PPi exchange assay (amino acid activation)
Type: biochemical
Conditions: nsAA pAcF

molecule	unitAbbreviation	Km
pAcFRS.2.t1: pAcFRS variant L65V, A167D, R257G, SEQ ID NO: 8 (protein) MDEFEMIKRNTSEIISEEELREVLKKDEKSALIGFEPSGKIHLGHYLQIKKMIDLQNAGFDIIIVLADLHAYLNQKGELDEIRKIGDYNKKVFEAMGLKAKYVYGSEFQLDKDYTLNVYRLALKTTLKRARRSMELIAREDENPKVAEVIYPIMQVNGCHYRGVDVDVGGMEQRKIHMLARELLPKKVVCIHNPVLTGLDGEGKMSSSKGNFIAVDDSPEEIRAKIKKAYCPAGVVEGNPIMEIAKYFLEYPLTIKGPEKFGGDLTVNSYEELESLFKNKELHPMRLKNAVAEELIKILEPIRKRL	µM	2810
